# Species: Rattus norvegicus
# Assay type: toxicity, organism-based, Sprague-Dawley
# Condition parameters: in vivo, po, 40 mg/kg, 24 h, tissue Blood, route oral GAVAGE, dose level Low, time 1 day, […]
# Description: DrugMatrix - Regimen: Single
Value type: ABSOLUTE LYMPHOCYTE (cells/µL)
Numbers only here, please. The scale is cells/µL.

# lookup: ABSOLUTE LYMPHOCYTE of C=CCN [ALLYLAMINE] 6420

----------
# Organism: Rattus norvegicus
# Run description: DrugMatrix - Regimen: Daily Repeat
# Assay type: toxicity, organism-based, Sprague-Dawley
# Set-up: regimen Daily Repeat, gender Male, age 6-8 weeks
# Condition parameters: in vivo, po, 0 mg/kg, 120 h, tissue Blood, route oral GAVAGE, dose level Control, time 5 day, vehicle 100 % WATER
Value type: NEUTROPHIL (%)
Please state the figure in %; there is no need to write the unit.

Reference set, count: 2
1) Fc1ccc([C@@H]2CCNC[C@H]2COc2ccc3c(c2)OCO3)cc1 [PAROXETINE]
8.67
2) C[C@]12Cc3c[nH]nc3C[C@@H]1CC[C@@H]1[C@@H]2CC[C@@]2(C)[C@H]1CC[C@]2(C)O [STANOZOLOL]
8.67

Which NEUTROPHIL reading was recorded for the compound NCC1(CC(=O)O)CCCCC1 [GABAPENTIN] ? 8.5

Suppose we examine the compound O=C1NC(=O)C(c2ccccc2)(c2ccccc2)N1 [PHENYTOIN] ; what NEUTROPHIL value has been reported? 9.67

Please report the recorded NEUTROPHIL for CN1CCC[C@H]1c1cccnc1 [NICOTINE] . 7.83

Given the entry COc1ccc(C(CN(C)C)C2(O)CCCCC2)cc1 (centres undefined) [VENLAFAXINE] , report its measured NEUTROPHIL. 9.83

Which measured NEUTROPHIL value corresponds to Clc1ccc(C(c2ccccc2Cl)C(Cl)Cl)cc1 (centres undefined) [MITOTANE] ? 6.83

Fill in the blank: the reported NEUTROPHIL of CC1COc2c(N3CCN(C)CC3)c(F)cc3c(=O)c(C(=O)O)cn1c23 (centres undefined) [OFLOXACIN] is ____. 7.83

Looking for the measured NEUTROPHIL of Nc1ccc(S(=O)(=O)Nc2ccnn2-c2ccccc2)cc1 [SULFAPHENAZOLE] , can you help? 9.17

Could you tell me which NEUTROPHIL is on file for CC1(C)S[C@@H]2[C@H](NC(=O)[C@H](N)c3ccc(O)cc3)C(=O)N2[C@H]1C(=O)O [AMOXICILLIN] ? 6.33

GET /values?readout=NEUTROPHIL&item= CN1CCN(C(=O)OC2c3nccnc3C(=O)N2c2ccc(Cl)cn2)CC1 (centres undefined) [ZOPICLONE] 8.17

What NEUTROPHIL value was documented for this compound, NC(=O)c1ncn([C@@H]2O[C@H](CO)[C@@H](O)[C@H]2O)n1 [RIBAVIRIN] ? 6.5

Requested field: NEUTROPHIL. Item: Cc1cc(NS(=O)(=O)c2ccc(N)cc2)no1 [SULFAMETHOXAZOLE] 9.83

Which NEUTROPHIL is reported for this compound? COc1cccc(C2(O)CCCCC2CN(C)C)c1 (centres undefined) [TRAMADOL] 8.67

So what's the measured NEUTROPHIL for this one? NNC(=O)c1ccncc1 [ISONIAZID] 9.17

Request the reported NEUTROPHIL associated with Cn1cnc([N+](=O)[O-])c1Sc1ncnc2nc[nH]c12 [AZATHIOPRINE] 5

Would you kindly share the measured NEUTROPHIL for CC(CCc1ccccc1)NCC(O)c1ccc(O)c(C(N)=O)c1 (centres undefined) [LABETALOL] ? 13.33

So what's the measured NEUTROPHIL for this one? CC(C)(S)[C@@H](N)C(=O)O [PENICILLAMINE] 7.17

Can you share its NEUTROPHIL? I mean this compound: CNCCC=C1c2ccccc2CCc2ccccc21 [NORTRIPTYLINE] 9.67
